# credit: patent US20220079910A1

Assay: Phase I trial N10BOM: docetaxel plasma exposure after oral docetaxel with ritonavir
Format: in vivo
Settings: human, oral, 10 patients with SAEs and DLTs (≥grade 3)
Description: We treated in a phase I trial (N10BOM) cancer patients (n=64) with oral docetaxel in combination with ritonavir. The dose was administered bi-daily once per week continuously.
quantity: Cmax (ng/mL)
Answer with a number only, understood to be in ng/mL.

The recorded Cmax for "CC(=O)O[C@@]12CO[C@@H]1C[C@H](O)[C@@]1(C)C(=O)[C@H](O)C3=C(C)[C@@H](OC(=O)[C@H](O)[C@@H](NC(=O)OC(C)(C)C)c4ccccc4)C[C@@](O)([C@@H](OC(=O)c4ccccc4)[C@H]21)C3(C)C" is 175
